Efficacy reference
Test system: Leptosphaeria nodorum
Assay: In vivo preventive test on Leptosphaeria nodorum (wheat)
Details: 500 ppm of active ingredient, evaluated 8 days after inoculation
Note: unit % is implicit; provide only the numeric part.

Study these solved cases before continuing.
molecule="Cn1nc(C(F)F)c(C(=O)N(C2CC2)C2CCc3ccccc3C2)c1F (stereo not drawn)" assaytarget="Leptosphaeria nodorum" unittext=% observedresult=94
molecule="CCc1nn(C)c(F)c1C(=O)N(C1CC1)C(C)C1Cc2ccccc2C1 (stereo not drawn)" assaytarget="Leptosphaeria nodorum" unittext=% observedresult=100

### Prompt Please give the documented Efficacy of Cn1nc(C(F)F)c(C(=O)N(C2CC2)C2Cc3ccccc3C2)c1F
### Response 94

### Prompt Please give the documented Efficacy of Cc1nn(C)c(F)c1C(=O)N(C1CC1)C(C)C1Cc2ccccc2C1 (stereo not drawn)
### Response 100

### Prompt Please give the documented Efficacy of CC(C1Cc2ccccc2C1)N(C(=O)c1c(C(F)F)nn(C)c1F)C1CC1 (stereo not drawn)
### Response 100

###

Efficacy reference
Tested on: Sphaerotheca fuliginea
Assay: In vivo preventive test on Sphaerotheca fuliginea (cucumbers)
Details: 100 ppm of active ingredient, evaluated 7 days after inoculation

Study these solved cases before continuing.
compound="CC(C1Cc2ccccc2C1)N(C(=O)c1c(C(F)F)nn(C)c1F)C1CC1 (centres unmarked) [Example 14]" assaytarget="Sphaerotheca fuliginea" observedresult=100%
compound="CC(C1CCc2ccccc2C1)N(C(=O)c1c(C(F)F)nn(C)c1F)C1CC1 (centres unmarked) [Example 16]" assaytarget="Sphaerotheca fuliginea" observedresult=100%
compound="CCc1nn(C)c(F)c1C(=O)N(C1CC1)C(C)C1Cc2ccccc2C1 (centres unmarked) [Example 12]" assaytarget="Sphaerotheca fuliginea" observedresult=95%
compound="CC(C1Cc2ccccc2C1)N(C(=O)c1cn(C)nc1C(F)F)C1CC1 (centres unmarked) [Example 13]" assaytarget="Sphaerotheca fuliginea" observedresult=95%

In the following, a different compound is considered.
### Prompt Fill in: Efficacy on Sphaerotheca fuliginea, entry Cc1nn(C)c(F)c1C(=O)N(C1CC1)C(C)C1Cc2ccccc2C1 (centres unmarked) [Example 11]
### Response 92%

###

System: Alternaria solani
Assay: In vivo preventive test on Alternaria solani (tomato)
Conditions: 500 ppm of active ingredient, evaluated 7 days after inoculation
Efficacy reference
Note: unit % is implicit; provide only the numeric part.

Study these solved cases before continuing.
compound="Cc1cc(C(=O)N(C2CC2)C(C)C2Cc3ccccc3C2)c(C)o1 (centres unmarked) [Example 10]" observedresult=95
compound="Cn1nc(C(F)F)c(C(=O)N(C2CC2)C2CCc3ccccc3C2)c1F (centres unmarked) [Example 7]" observedresult=100
compound="CC(C1Cc2ccccc2C1)N(C(=O)c1c(C(F)F)nn(C)c1F)C1CC1 (centres unmarked) [Example 14]" observedresult=95
compound="Cn1nc(C(F)F)c(C(=O)N(C2CC2)C2Cc3ccccc3C2)c1Cl [Example 1]" observedresult=89
compound="Cn1nc(C(F)F)c(C(=O)N(C2CC2)C2Cc3ccccc3C2)c1F [Example 2]" observedresult=94
compound="Cc1nn(C)c(F)c1C(=O)N(C1CC1)C(C)C1Cc2ccccc2C1 (centres unmarked) [Example 11]" observedresult=100
compound="Cn1cc(C(=O)N(C2CC2)C2CCc3ccccc3C2)c(C(F)F)n1 (centres unmarked) [Example 6]" observedresult=95
compound="CCc1nn(C)c(F)c1C(=O)N(C1CC1)C1CCc2ccccc2C1 (centres unmarked) [Example 5]" observedresult=95

### Prompt Fill in: Efficacy on Alternaria solani, entry CC(C1CCc2ccccc2C1)N(C(=O)c1c(C(F)F)nn(C)c1F)C1CC1 (centres unmarked) [Example 16]
### Response 95

### Prompt Fill in: Efficacy on Alternaria solani, entry Cn1nc(C(F)F)c(C(=O)N(CC2COc3ccccc3C2)C2CC2)c1F (centres unmarked) [Example 20]
### Response 80

### Prompt Fill in: Efficacy on Alternaria solani, entry CC(C1Cc2ccccc2C1)N(C(=O)c1cn(C)nc1C(F)F)C1CC1 (centres unmarked) [Example 13]
### Response 100

### Prompt Fill in: Efficacy on Alternaria solani, entry CCC(C1CCc2ccccc2C1)N(C(=O)c1c(C(F)F)nn(C)c1F)C1CC1 (centres unmarked) [Example 17]
### Response 80

### Prompt Fill in: Efficacy on Alternaria solani, entry CCc1nn(C)c(F)c1C(=O)N(C1CC1)C(C)C1Cc2ccccc2C1 (centres unmarked) [Example 12]
### Response 100

### Prompt Fill in: Efficacy on Alternaria solani, entry Cn1nc(C(F)F)c(C(=S)N(C2CC2)C2CCc3ccccc3C2)c1F (centres unmarked) [Example 9]
### Response 93

###

Test: log P by HPLC on reversed-phase column (C 18), EEC Directive 79/831 Annex V.A8
Type: physicochemical
Conditions: C 18 reversed phase, 40° C., 0.1% aqueous formic acid and acetonitrile gradient
readoutLabel: logP
// response body must contain only the number

Study these solved cases before continuing.
compound="Cc1nn(C)c(F)c1C(=O)N(C1CC1)C1CCc2ccccc2C1 (centres unmarked)" readoutlabel=logP observedresult=3.00
compound="CC(C1CCc2ccccc2C1)N(C(=O)c1ccsc1I)C1CC1 (centres unmarked)" readoutlabel=logP observedresult=4.82
compound="Cn1cc(C(=O)N(C2CC2)C2CCc3ccccc3C2)c(C(F)F)n1 (centres unmarked)" readoutlabel=logP observedresult=3.08
compound="CC(C1CCc2ccccc2C1)N(C(=O)c1c(C(F)F)nn(C)c1F)C1CC1 (centres unmarked)" readoutlabel=logP observedresult=3.99

In the following, a different compound is considered.
### Prompt Please give the documented logP of Cc1cc(C(=O)N(C2CC2)C2CCc3ccccc3C2)c(C)o1 (centres unmarked)
### Response 4.01

###

Test: log P by HPLC on reversed-phase column (C 18), EEC Directive 79/831 Annex V.A8
Type: physicochemical
Conditions: C 18 reversed phase, 40° C., 0.1% aqueous formic acid and acetonitrile gradient
Experimental: In table 1, the log P values were determined in accordance with EEC Directive 79/831 Annex V.A8 by HPLC (High Performance Liquid Chromatography) on a reversed-phase column (C 18), using the method described below: Temperature: 40° C.; Mobile phases: 0.1% aqueous formic acid and acetonitrile; linear gradient from 10% acetonitrile to 90% acetonitrile. […]
logP reference
// response body must contain only the number

compound="Cn1nc(C(F)F)c(C(=O)N(CC2COc3ccccc3C2)C2CC2)c1F (stereo not drawn)" readoutlabel=logP observedresult=3.00
compound="Cn1nc(C(F)F)c(C(=O)N(C2CC2)C2CCc3ccccc3C2)c1F (stereo not drawn)" readoutlabel=logP observedresult=3.48
compound=Cn1nc(C(F)F)c(C(=O)N(C2CC2)C2Cc3ccccc3C2)c1F readoutlabel=logP observedresult=3.19
compound="Cn1cc(C(=S)N(C2CC2)C2CCc3ccccc3C2)c(C(F)F)n1 (stereo not drawn)" readoutlabel=logP observedresult=3.73
compound="Cn1nc(C(F)F)c(C(=S)N(C2CC2)C2CCc3ccccc3C2)c1F (stereo not drawn)" readoutlabel=logP observedresult=4.21
compound=Cn1nc(C(F)F)c(C(=O)N(C2CC2)C2Cc3ccccc3C2)c1Cl readoutlabel=logP observedresult=3.35

### Prompt Please give the documented logP of CC(C1Cc2ccccc2C1)N(C(=O)c1cn(C)nc1C(F)F)C1CC1 (stereo not drawn)
### Response 3.33

### Prompt Please give the documented logP of Cc1cc(C(=O)N(C2CC2)C(C)C2Cc3ccccc3C2)c(C)o1 (stereo not drawn)
### Response 4.34

### Prompt Please give the documented logP of CCc1nn(C)c(F)c1C(=O)N(C1CC1)C1CCc2ccccc2C1 (stereo not drawn)
### Response 3.35

###

Tested on: Leptosphaeria nodorum
Experiment: In vivo preventive test on Leptosphaeria nodorum (wheat)
Settings: 500 ppm of active ingredient, evaluated 8 days after inoculation
Procedure: EXAMPLE D: IN VIVO PREVENTIVE TEST ON LEPTOSPHAERIA NODORUM (WHEAT) Solvent: 49 parts by weight of N,N-dimethylacetamide Emulsifier: 1 part by weight of alkylaryl polyglycol ether To produce a suitable preparation of active compound, 1 part by weight of active compound or the compound combination is mixed with the stated amounts of solvent and emulsifier, and the concentrate is diluted with water to the desired concentration. […] The test is evaluated 8 days after the inoculation. […]
Efficacy reference
Note: unit % is implicit; provide only the numeric part.

molecule="CCC(C1CCc2ccccc2C1)N(C(=O)c1c(C(F)F)nn(C)c1F)C1CC1 (stereo not shown) [Example 17]" unittext=% observedresult=80

### Prompt Please give the documented Efficacy of CC(C1CCc2ccccc2C1)N(C(=O)c1c(C(F)F)nn(C)c1F)C1CC1 (stereo not shown) [Example 16]
### Response 86

### Prompt Please give the documented Efficacy of CCc1nn(C)c(F)c1C(=O)N(C1CC1)C1CCc2ccccc2C1 (stereo not shown) [Example 5]
### Response 78

### Prompt Please give the documented Efficacy of CC(C1Cc2ccccc2C1)N(C(=O)c1cn(C)nc1C(F)F)C1CC1 (stereo not shown) [Example 13]
### Response 100
